Tested on: SK-MEL-5
Measurement notes: NCI tumour cell line growth inhibition, 48 h
Calls of active or inactive are those of the source. Cut-off read from the data, not from the text of the source: active = GI50 up to about 1.1 µM and inactive = higher.
So I've got a bunch of compounds here, and I need their GI50 values.

Task: API: value(readout=GI50, system=SK-MEL-5) for record `Oc1cccc2cc(Cl)cnc12`
Result: 8.41 µM (inactive)

Task: API: value(readout=GI50, system=SK-MEL-5) for record COc1ccccc1C(N)c1ccccc1 (stereo unspecified)
Result: > 100 µM (inactive)

Task: API: value(readout=GI50, system=SK-MEL-5) for record CCOC(=O)C(C(=S)SC)c1nn2c(=O)cc(C)nc2s1 (stereo unspecified)
Result: 18.7 µM (inactive)

Task: API: value(readout=GI50, system=SK-MEL-5) for record `COC(=O)c1c(C)[nH]c2c1C(=O)C(=O)c1nc(C)c(C)nc1-2`
Result: 5.77 µM (inactive)

Task: API: value(readout=GI50, system=SK-MEL-5) for record COC(=O)C1C2CC3C1C3C2C(=O)OC (stereo unspecified)
Result: > 100 µM (inactive)

Task: API: value(readout=GI50, system=SK-MEL-5) for record `O=c1cc(-c2ccccc2)c2ccc(O)c(CN(CCCl)CCCl)c2o1`
Result: 16.9 µM (inactive)

Value source: ChEMBL document CHEMBL1201862
